MEASUREMENT TARGET: PIKfyve (Homo sapiens, UniProt Q9Y2I7)
Sequence (Q9Y2I7 whole entry): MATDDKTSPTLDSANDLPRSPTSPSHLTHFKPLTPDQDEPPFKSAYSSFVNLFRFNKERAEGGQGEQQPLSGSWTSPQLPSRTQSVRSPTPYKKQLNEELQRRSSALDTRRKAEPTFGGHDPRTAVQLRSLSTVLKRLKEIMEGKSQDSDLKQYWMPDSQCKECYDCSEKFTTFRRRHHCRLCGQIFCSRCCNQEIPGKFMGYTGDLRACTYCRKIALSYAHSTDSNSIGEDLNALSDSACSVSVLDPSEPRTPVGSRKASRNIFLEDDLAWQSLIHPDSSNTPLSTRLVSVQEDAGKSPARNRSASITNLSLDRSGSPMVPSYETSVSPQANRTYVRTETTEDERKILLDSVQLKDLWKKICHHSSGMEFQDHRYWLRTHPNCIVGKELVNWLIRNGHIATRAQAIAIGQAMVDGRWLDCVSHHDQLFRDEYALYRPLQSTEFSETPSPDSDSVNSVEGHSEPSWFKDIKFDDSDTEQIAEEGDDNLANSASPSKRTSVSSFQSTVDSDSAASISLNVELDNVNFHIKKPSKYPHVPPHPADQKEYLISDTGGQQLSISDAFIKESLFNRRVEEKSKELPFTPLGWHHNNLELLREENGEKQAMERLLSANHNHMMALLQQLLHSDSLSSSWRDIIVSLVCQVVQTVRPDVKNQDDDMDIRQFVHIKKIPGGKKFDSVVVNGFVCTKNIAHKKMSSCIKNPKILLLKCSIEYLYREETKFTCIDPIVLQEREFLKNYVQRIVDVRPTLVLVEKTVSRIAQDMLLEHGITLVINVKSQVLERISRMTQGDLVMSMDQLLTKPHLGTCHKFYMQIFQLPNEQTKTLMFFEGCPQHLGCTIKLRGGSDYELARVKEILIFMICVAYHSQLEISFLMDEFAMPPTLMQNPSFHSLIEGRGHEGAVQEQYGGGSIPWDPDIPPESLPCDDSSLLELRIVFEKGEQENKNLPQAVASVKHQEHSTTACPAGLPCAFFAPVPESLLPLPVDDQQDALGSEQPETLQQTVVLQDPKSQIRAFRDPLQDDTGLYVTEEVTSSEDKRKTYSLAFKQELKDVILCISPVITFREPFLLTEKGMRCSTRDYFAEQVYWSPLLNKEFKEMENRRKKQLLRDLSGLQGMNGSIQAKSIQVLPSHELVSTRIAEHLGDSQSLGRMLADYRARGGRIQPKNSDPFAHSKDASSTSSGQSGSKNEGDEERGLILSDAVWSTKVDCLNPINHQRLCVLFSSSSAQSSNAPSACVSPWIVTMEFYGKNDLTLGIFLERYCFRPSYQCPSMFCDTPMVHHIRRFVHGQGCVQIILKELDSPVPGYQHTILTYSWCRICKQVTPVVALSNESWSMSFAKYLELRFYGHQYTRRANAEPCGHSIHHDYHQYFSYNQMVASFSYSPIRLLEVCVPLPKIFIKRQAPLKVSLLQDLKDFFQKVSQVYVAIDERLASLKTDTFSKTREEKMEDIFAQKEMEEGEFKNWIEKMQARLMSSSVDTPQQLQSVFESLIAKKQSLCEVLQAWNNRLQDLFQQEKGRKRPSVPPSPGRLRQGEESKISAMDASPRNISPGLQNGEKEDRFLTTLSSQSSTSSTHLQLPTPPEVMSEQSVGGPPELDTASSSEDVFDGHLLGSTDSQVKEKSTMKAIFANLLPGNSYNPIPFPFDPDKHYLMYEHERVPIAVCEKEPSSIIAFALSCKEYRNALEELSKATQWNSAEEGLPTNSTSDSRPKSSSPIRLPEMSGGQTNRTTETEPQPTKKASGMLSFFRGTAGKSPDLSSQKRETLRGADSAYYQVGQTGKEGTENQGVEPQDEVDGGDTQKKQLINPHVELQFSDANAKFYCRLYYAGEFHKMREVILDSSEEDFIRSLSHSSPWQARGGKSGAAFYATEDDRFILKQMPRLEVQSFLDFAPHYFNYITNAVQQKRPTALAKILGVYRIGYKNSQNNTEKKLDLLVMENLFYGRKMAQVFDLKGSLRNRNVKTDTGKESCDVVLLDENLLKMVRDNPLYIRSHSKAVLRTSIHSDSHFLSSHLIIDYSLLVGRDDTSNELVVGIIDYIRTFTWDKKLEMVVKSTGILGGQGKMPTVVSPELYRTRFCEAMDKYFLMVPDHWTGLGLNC
ASSAY METHOD TEXT: biochemical
Assay type: biochemical

SMILES	IC50
CN(C)CC#Cc1ccc2[nH]c3c(c2c1)-c1nc(N)ncc1CCC3	< 0.1 µM

###

MEASUREMENT TARGET: PIKfyve (Homo sapiens, UniProt Q9Y2I7)
ASSAY METHOD TEXT: cell-based
TEST CONDITIONS: PIKfyve NanoBRET IC50, bound stated with SGC probe criteria
pIC50: −log10 of the molar value.

COMPOUND	pIC50
CN(C)CC#Cc1ccc2[nH]c3c(c2c1)-c1nc(N)ncc1CCC3 [compound 17]	> 6.00
